assay: chemical genetic growth profiling, strain panel (AID 1159580);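 further: tested at 20 µM; growth read once vehicle control cultures reached saturation at 30 °C; lower values mean less growth of the strain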; details: S. cerevisiae deletion strains, growth OD, locus YJL154C, strain vps35, active compounds read low
About 2,000 (36%) of roughly 5,500 compounds were called active. Roughly 18% stayed inconclusive and do not appear here. This is one part of the list.
Rule: measured normalized growth below 1 gets t; anything equal to or greater than 1 gets f.

O=C(N[C@@H](CO)[C@H](O)c1ccc([N+](=O)[O-])cc1)C(Cl)Cl :: f
CCCCCCCCCCCCCCCC(=O)OC[C@H](NC(=O)C(Cl)Cl)[C@H](O)c1ccc([N+](=O)[O-])cc1 :: f
CC(=O)Nc1c(I)cc(I)c(C(=O)O)c1I :: t

Answer whether the compound COc1ccc([C@@H](C)C(=O)c2ccc(O)cc2O)cc1 has normalized growth strictly less than 1 t
